Data origin, for the record: patent US5118690A

Molecular target: GABA autoreceptor
Assay: antagonist activity at GABA autoreceptors by blockade of agonist (muscimol)-induced inhibition of potassium-evoked [3H]-GABA release from rat cortex slices in vitro (Procedure 1)
Format: biochemical
Conditions: Procedure 1; agonist muscimol; rat cerebral cortex slices
endpoint: Antagonism at GABA autoreceptor pA2 values

CN1CCc2ccccc2[C@@H]1[C@@H]1CCCO1 (relative stereo) : 9.2
COc1cc2c(cc1OC)[C@H]([C@@H]1CCCO1)NCC2 (relative stereo) : 7.0
c1csc(C2NCCc3ccccc32)c1 (racemic) : 8.4

(I) c1ccc2c(c1)CCN[C@H]2[C@@H]1CCCO1 (relative stereo)
(II) COc1cc2c(cc1OC)[C@H]([C@H]1CCCO1)NCC2 (relative stereo)
Exercise: Thinking about recorded Antagonism at GABA autoreceptor pA2 values values, which is higher, I or II ? Mark your selection by writing its label.
Key: I
